# Assayed System: Hck (UniProt P08631)
# Sequence (P08631 whole entry, looked up): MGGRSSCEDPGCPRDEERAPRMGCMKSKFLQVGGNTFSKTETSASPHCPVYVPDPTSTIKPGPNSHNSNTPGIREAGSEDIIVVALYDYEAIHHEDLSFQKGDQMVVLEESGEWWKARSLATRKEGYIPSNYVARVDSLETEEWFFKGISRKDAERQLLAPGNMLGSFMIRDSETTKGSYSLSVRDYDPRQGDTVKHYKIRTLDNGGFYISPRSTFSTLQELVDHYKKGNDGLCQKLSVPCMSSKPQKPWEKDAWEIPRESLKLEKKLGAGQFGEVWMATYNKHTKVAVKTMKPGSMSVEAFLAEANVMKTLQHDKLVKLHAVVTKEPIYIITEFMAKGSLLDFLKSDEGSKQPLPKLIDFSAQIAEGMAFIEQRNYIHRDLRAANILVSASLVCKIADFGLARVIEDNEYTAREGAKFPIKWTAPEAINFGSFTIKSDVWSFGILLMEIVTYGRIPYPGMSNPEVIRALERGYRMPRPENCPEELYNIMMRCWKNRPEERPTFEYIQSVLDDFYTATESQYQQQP
# Measurement Description: phosphorylation enrichment, bacterial display (enrichment ratio); higher = better substrate or ligand; peptides without Tyr show the background;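 also: 11-residue human phosphosite peptides and single-mutation variants displayed on the E. coli surface, counted by deep sequencing, each peptide's frequency after selection divided by its frequency in the unselected input library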;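 also: frequency after pTyr selection over input frequency; kinase dosed for 20-30% of maximal phosphorylation in three min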
Assignment: determine reported phosphorylation enrichment for the given sequences.
One number for each entry.

RGDIFYTSKLW [AKR1C3_Y81_E77G] : 0.46
EFISENCGEII [EZH2_Y641_Y641N] : 0.495
LVQAEYWHDRI [PPT1_Y185_P189R] : 0.605
EYITRYIDSLK [PSMA7_Y110_A112D] : 0.558
LEDDMYRKTCT [XPA_Y257] : 0.984
YRQLPYCPSVE [CTNND2_Y508_Q507P] : 1.09

Continue with the sequence presented below.
Recorded phosphorylation enrichment for HNQDGYSFLSR [LDLR_Y845_P848L_YF] , please?
0.841

###

# Assayed System: EPHB2 (UniProt P29323)
# Sequence (P29323 whole entry, looked up): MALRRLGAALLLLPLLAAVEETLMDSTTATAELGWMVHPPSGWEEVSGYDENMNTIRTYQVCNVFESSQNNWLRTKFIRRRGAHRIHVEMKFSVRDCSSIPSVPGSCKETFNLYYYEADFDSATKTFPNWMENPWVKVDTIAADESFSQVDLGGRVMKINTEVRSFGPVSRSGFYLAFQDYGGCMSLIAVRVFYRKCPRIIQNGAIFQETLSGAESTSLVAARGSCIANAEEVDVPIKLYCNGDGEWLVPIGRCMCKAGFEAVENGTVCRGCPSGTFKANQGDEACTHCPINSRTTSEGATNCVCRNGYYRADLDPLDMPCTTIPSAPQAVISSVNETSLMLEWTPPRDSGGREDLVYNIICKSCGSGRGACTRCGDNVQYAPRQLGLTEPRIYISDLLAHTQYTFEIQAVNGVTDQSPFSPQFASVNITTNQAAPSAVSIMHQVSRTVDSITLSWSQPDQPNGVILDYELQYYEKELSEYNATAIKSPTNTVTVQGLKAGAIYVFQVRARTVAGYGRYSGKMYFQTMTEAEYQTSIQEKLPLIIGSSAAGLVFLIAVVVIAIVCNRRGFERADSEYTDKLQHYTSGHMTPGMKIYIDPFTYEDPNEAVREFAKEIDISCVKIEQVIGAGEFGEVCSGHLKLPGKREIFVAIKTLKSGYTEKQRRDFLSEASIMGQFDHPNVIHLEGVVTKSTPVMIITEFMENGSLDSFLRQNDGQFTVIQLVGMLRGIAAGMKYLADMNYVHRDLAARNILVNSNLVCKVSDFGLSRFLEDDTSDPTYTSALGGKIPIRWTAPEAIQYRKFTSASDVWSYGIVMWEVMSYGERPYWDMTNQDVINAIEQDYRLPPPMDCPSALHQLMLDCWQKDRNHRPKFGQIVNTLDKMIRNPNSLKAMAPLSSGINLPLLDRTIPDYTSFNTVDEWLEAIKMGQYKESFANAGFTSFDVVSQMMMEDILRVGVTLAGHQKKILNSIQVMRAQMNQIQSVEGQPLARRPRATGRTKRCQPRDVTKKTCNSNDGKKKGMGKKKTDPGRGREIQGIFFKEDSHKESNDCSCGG
# Measurement Description: phosphorylation enrichment, bacterial display (enrichment ratio); higher = better substrate or ligand; peptides without Tyr show the background
In this scheme, each record receives a class according to its phosphorylation enrichment; the ranges are band 1 = under 0.5, band 2 = from 0.5 up to 0.7, band 3 = 0.7 and over

These recorded examples may help you get a feel for the data.
RFWPRYVKVGS [NOG_Y172] : band 1
EEDPEYKKKFR [FAM161A_Y278] : band 1

# bin label for VSSSDYFSFVL [USP24_Y2138_Y2134S]
band 3

Input FPLAEYTEVKT [ALDH1A3_Y497_A493P_YF]
band 2

Same question for NNPAFYVLEGV [INPPL1_Y987_YF] please.
band 2

GLIPAYHWVIM [NMNAT1_Y64_R66W] , same question.
band 3

Then MANFMYKAGPS [MAML2_Y515_YF] ?
band 2

What do you get for GISDEYHVIRH [GCDH_Y398] ?
band 1

Likewise for SFHSSYSEIKD [DCLRE1C_Y322] ?
band 2

// next record NQNIGYKLGHR [KCNN3_Y268]
band 1

One more sequence: LFDPDYMKVIL [CYP4A22_Y104_YF]
band 3

###

# Assayed System: MERTK (UniProt Q12866)
# Sequence (Q12866 whole entry, looked up): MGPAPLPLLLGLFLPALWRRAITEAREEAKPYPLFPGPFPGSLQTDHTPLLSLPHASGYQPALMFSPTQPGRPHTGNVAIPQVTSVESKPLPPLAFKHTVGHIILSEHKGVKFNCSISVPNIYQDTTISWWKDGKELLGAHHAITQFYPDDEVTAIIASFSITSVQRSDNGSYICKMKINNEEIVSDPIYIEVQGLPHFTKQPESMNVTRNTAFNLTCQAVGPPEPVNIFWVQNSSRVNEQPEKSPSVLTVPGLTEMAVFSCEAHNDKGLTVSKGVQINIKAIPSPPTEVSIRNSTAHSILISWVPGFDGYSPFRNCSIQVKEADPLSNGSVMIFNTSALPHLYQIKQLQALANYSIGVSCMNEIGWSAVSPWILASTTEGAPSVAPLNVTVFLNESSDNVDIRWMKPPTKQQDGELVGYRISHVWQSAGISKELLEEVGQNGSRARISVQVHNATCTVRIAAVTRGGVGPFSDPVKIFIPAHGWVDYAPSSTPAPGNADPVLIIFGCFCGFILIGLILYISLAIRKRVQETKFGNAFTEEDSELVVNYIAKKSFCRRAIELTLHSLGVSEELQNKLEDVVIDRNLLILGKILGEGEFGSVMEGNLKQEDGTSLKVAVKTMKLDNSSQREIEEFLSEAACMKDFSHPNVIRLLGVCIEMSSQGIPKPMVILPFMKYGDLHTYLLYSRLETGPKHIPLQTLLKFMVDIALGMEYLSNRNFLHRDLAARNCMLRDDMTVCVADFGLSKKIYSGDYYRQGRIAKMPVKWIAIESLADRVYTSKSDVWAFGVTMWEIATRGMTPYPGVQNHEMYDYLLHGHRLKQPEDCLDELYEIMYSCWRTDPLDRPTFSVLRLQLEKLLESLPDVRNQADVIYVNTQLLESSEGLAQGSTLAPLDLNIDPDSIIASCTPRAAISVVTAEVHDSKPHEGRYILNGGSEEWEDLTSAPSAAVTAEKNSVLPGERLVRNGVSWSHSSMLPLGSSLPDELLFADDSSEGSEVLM
# Measurement Description: phosphorylation enrichment, bacterial display (enrichment ratio); higher = better substrate or ligand; peptides without Tyr show the background
Quantity Measured: phosphorylation enrichment
Answers are plain numbers.

Known phosphorylation enrichment results, listed for orientation:
KICDWYQRQRP [KRT14_Y151_R148C] : 0.511
EQFELYCEMGS [CBL_Y371_YF] : 1.58
DKATEYIQFVR [MAX_Y70_M74V_YF] : 0.41
TLAHKYHGGGG [HBB_Y146_A141T] : 0.577
REAAAYPHGRL [AGXT_Y297_L298P] : 0.32
FISLIYTNFEA [GSTP1_Y109_YF] : 3.6
SHSMRYFDTSV [HLA-C_Y31_A35S] : 0.386
RTESQYQENRG [LRCH3_Y354_R350T] : 0.688
ESMLRYEVFGG [STOX1_Y607_YF] : 1.41
REESTYLPLTS [ICAM3_Y527] : 0.803

Please report phosphorylation enrichment for every entry that follows.
1. SSDKVYAHQMV [MLH1_Y379]
2. LSALDYKIFFF [WDPCP_Y210_YF]

1. 0.476
2. 0.332

Take each entry in turn and give its phosphorylation enrichment.
1. EKLQKYFRQNP [EHHADH_Y682_YF]
2. LVQAEYWHDRI [PPT1_Y185_P189R]

1. 0.354
2. 0.522
